study system: HLA-DR DRB1*0701 (DR7) (Homo sapiens, UniProt P01903+P01911, A100R/A102G/A103Q/D57E/D86V/E43K/F76Y/K127E/L162R/M171V/P40G/Q125H/Q99D/R33Q/R42Y/R54Q/S133A/S66F/T210M/V115G/Y107V/Y59L/Y89S)
protocol summary: biochemical
Assay type: binding
conditions: DRB1 *0701
No end group written: not given here.
log10(IC50) values, listed per item
Hi team, quick reminder: these entries are log10 of IC50 (µM).

In the examples that follow, each entry is paired with its recorded log10(IC50).
Query: Please supply the value of reported log10(IC50) for the item "NYELSKKAVIFTPIY"
Result: 0.74

Query: Please supply the value of reported log10(IC50) for the item "KCLVISQVSNSDSYK"
Result: 1.67

Query: Please supply the value of reported log10(IC50) for the item "YKFLFTDLRIVYRDN"
Result: 0.18

Query: Please supply the value of reported log10(IC50) for the item "WKRMEVGQQAVEVWQ"
Result: 1.66

Query: Please supply the value of reported log10(IC50) for the item "LRIVYRDGNPFAVCK"
Result: 0.95

Continuing:
Query: Please supply the value of reported log10(IC50) for the item "YDPLYCESVHNFTLP"
Result: -0.08

Query: Please supply the value of reported log10(IC50) for the item "GVILYSDPADYFAPG"
Result: 0.89

----------
study system: HLA-DR DRB1*1302 (DR13) (Homo sapiens, UniProt P01903+P01911, A100E/A169T/K41T/L162R/M171V/P40S/Q125H/Q178H/Q39Y/Q99D/R42S/S66N/T262R/V115G/W38E/Y61H)
Sequence (P01903 26-254 limits assumed, other chains not shown): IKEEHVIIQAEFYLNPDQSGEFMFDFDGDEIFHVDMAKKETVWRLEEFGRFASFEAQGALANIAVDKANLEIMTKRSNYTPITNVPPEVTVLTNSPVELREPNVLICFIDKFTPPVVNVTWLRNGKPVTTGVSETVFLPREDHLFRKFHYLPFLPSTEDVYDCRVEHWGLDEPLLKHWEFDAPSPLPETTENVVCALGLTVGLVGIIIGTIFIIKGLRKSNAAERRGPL
protocol summary: biochemical
Assay type: binding
conditions: DRBI *1302
No end group written: not given here.
measurement label: IC50

In the examples that follow, each entry is paired with its recorded IC50.
Query: Please supply the value of reported IC50 for the item "SKIMKLPKLPISNGK"
Result: 6.46 µM

Query: Please supply the value of reported IC50 for the item "YLVCGERGFFYTDKT"
Result: 1.01 µM

Query: Please supply the value of reported IC50 for the item "DFSYLQDSDPDSFQD"
Result: > 35 µM

Query: Please supply the value of reported IC50 for the item "QWVLTAAHCLKKNSQ"
Result: > 35 µM

Query: Please supply the value of reported IC50 for the item "HPLYNMSLLKHQSLR"
Result: 0.546 µM

Continuing:
Query: Please supply the value of reported IC50 for the item "ELVSEFSRMARDPQ"
Result: > 71.4 µM

----------
IC50 values, listed per item
study system: HLA-DR DRB5*0101 (DR51) (Homo sapiens, UniProt P01903+Q30154)
protocol summary: biochemical
Assay type: binding
conditions: DRB5 *0101
No end group written: not given here.

In the examples that follow, each entry is paired with its recorded IC50.
Query: Please supply the value of reported IC50 for the item "KEDSHTAWTIVRVEI"
Result: 0.575 µM

Query: Please supply the value of reported IC50 for the item "NPVVHFFKNIVT"
Result: 10 µM

Query: Please supply the value of reported IC50 for the item "WKRMEVGQQAVEVWQ"
Result: 4.3 µM

Continuing:
Query: Please supply the value of reported IC50 for the item "LRIVYRDGNPFAVCK"
Result: 6.82 µM

Query: Please supply the value of reported IC50 for the item "DHRQLQLSISSCLQQLSLLM"
Result: 63.8 µM

Query: Please supply the value of reported IC50 for the item "GRLEYCLKDRRNFDI"
Result: 64.7 µM

Query: Please supply the value of reported IC50 for the item "QSQKLLWQLNGRLEY"
Result: 0.402 µM

Query: Please supply the value of reported IC50 for the item "RTAMFQDPQERPRKL"
Result: 7.47 µM

Query: Please supply the value of reported IC50 for the item "VPTLQDVVLELTPQT"
Result: > 31.4 µM

Query: Please supply the value of reported IC50 for the item "TNKFSGYPLYHSVYE"
Result: 2.94 µM

----------
pIC50 values, listed per item
study system: HLA-DR DRB1*0901 (DR9) (Homo sapiens, UniProt P01903+P01911, A100R/A103E/D57H/D86V/F55Y/F60I/F76Y/I96F/K127E/L162R/M171V/P40D/Q125H/Q99R/R33Q/R42F/S133A/S66N/T210M/V115G/W38K/Y107V/Y59G/Y89S)
protocol summary: biochemical
Assay type: binding
conditions: DRB1 *0901
Please treat pIC50 as minus the base-10 logarithm of the molar concentration.

In the examples that follow, each entry is paired with its recorded pIC50.
Query: Please supply the value of reported pIC50 for the item "CC[C@H](C)[C@H](NC(=O)[C@@H]1CCCN1C(=O)[C@H](CC(=O)O)NC(=O)[C@@H](NC(=O)[C@@H]1CCCN1C(=O)[C@H](Cc1ccccc1)NC(=O)[C@@H](NC(=O)[C@H](CC(=O)O)NC(=O)[C@@H](NC(=O)[C@@H]1CCCN1C(=O)[C@H](CO)NC(=O)[C@@H](N)CCCNC(=N)N)[C@@H](C)CC)[C@@H](C)O)[C@@H](C)O)C(=O)N[C@@H](CCCCN)C(=O)N[C@@H](CCC(=O)O)C(=O)N[C@@H](CO)C(=O)O"
Result: 5.21

Query: Please supply the value of reported pIC50 for the item "CC[C@H](C)[C@H](NC(=O)[C@H](Cc1c[nH]cn1)NC(=O)[C@H](CCSC)NC(=O)[C@H](CCCCN)NC(=O)[C@@H](NC(=O)[C@H](CCCCN)NC(=O)[C@H](CCC(N)=O)NC(=O)[C@@H](NC(=O)[C@H](CO)NC(=O)[C@H](Cc1ccccc1)NC(=O)[C@H](CC(N)=O)NC(=O)CNC(=O)[C@@H](N)[C@@H](C)O)[C@@H](C)O)C(C)C)C(=O)N[C@@H](Cc1c[nH]cn1)C(=O)N[C@@H](CO)C(=O)O"
Result: 5.84

Query: Please supply the value of reported pIC50 for the item "CC[C@H](C)[C@H](NC(=O)[C@H](Cc1c[nH]c2ccccc12)NC(=O)[C@@H](NC(=O)[C@@H](NC(=O)[C@H](CO)NC(=O)[C@H](CC(C)C)NC(=O)[C@@H](N)[C@@H](C)O)C(C)C)[C@@H](C)O)C(=O)NCC(=O)N[C@@H](C)C(=O)N[C@@H](C)C(=O)N1CCC[C@H]1C(=O)N[C@@H](CC(C)C)C(=O)N[C@H](C(=O)N[C@@H](CC(C)C)C(=O)N[C@@H](CO)C(=O)O)[C@@H](C)CC"
Result: 8.27

Attention now shifts to the item below.
Query: Please supply the value of reported pIC50 for the item "CC[C@H](C)[C@H](NC(=O)CNC(=O)[C@H](CCCNC(=N)N)NC(=O)[C@H](CCCNC(=N)N)NC(=O)[C@H](Cc1ccc(O)cc1)NC(=O)[C@H](C)NC(=O)[C@H](Cc1ccc(O)cc1)NC(=O)[C@@H](N)CCC(=O)O)C(=O)N[C@@H](C)C(=O)N[C@@H](CCC(=O)O)C(=O)N[C@@H](C)C(=O)N[C@H](C(=O)NCC(=O)N[C@@H](CC(C)C)C(=O)N1CCC[C@H]1C(=O)O)C(C)C"
Result: 7.17

----------
study system: HLA-DR DRB1*0301 (DR3) (Homo sapiens, UniProt P01903+P01911, A100K/A102G/A103R/A169T/F55Y/I96L/K41T/L162R/M171V/P40S/Q125H/Q178H/Q39Y/R42S/S66N/T106N/T262R/W38E/Y61H)
Sequence (P01903 26-254 limits assumed, other chains not shown): as the sequence (P01903 26-254 limits assumed, other chains not shown) above
protocol summary: biochemical
Format: binding
measurement label: IC50

Query: Please supply the value of reported IC50 for the item "CC[C@H](C)[C@H](NC(=O)[C@@H](NC(=O)[C@@H]1CCCN1C(=O)CN)C(C)C)C(=O)N1CCC[C@H]1C(=O)N[C@@H](CCC(N)=O)C(=O)N[C@@H](CC(=O)O)C(=O)N[C@@H](Cc1c[nH]c2ccccc12)C(=O)N[C@@H](CO)C(=O)N[C@H](C(=O)N[C@@H](CCC(=O)O)C(=O)N[C@@H](CS)C(=O)N[C@@H](CCSC)C(=O)N[C@H](C(=O)N[C@H](C(=O)O)[C@@H](C)O)[C@@H](C)O)[C@@H](C)O"
Result: 52.1 µM

Continuing:
Query: Please supply the value of reported IC50 for the item "CC[C@H](C)[C@H](NC(=O)[C@H](CCCCN)NC(=O)[C@H](CCSC)NC(=O)[C@H](CC(=O)O)NC(=O)[C@H](CCCNC(=N)N)NC(=O)[C@H](CCC(=O)O)NC(=O)[C@H](CC(C)C)NC(=O)[C@H](CCCCN)NC(=O)[C@H](Cc1ccccc1)NC(=O)[C@@H](N)Cc1ccccc1)C(=O)N[C@@H](CC(N)=O)C(=O)N[C@@H](CS)C(=O)N[C@@H](CO)C(=O)NCC(=O)N[C@@H](CCCCN)C(=O)O"
Result: 0.121 µM

Attribution: patent US20060079453A1
